Each record here notes measured Solubility.
Test: Solubility in PBS
Format: physicochemical
Respond with the bare value in µM.

Solved cases (4 shown):
CC(=O)N1CCC[C@]12CC=CCCCC1(CCCC=CCCCOC(=O)N3CC[C@@](C(=O)N[C@@H](Cc4ccsc4)C(=O)N[C@@H](Cc4csc5ccccc45)C(=O)N[C@@H](CCC(N)=O)C(N)=O)(C3)NC(=O)[C@H](CC(N)=O)NC(=O)[C@H](Cc3ccccc3)NC(=O)[C@H](C)NC(=O)[C@H](C)NC(=O)[C@H](CC(=O)O)NC(=O)[C@H](CC(=O)O)NC1=O)NC(=O)[C@H](CC(C)C)NC(=O)[C@H](CC(=O)O)NC2=O (some centres unmarked) [I-689] | 50
CC(=O)N1CCC[C@]12CC=CCCCC1(CCCC=CCCCOC(=O)N3CC[C@@](C(=O)N[C@@H](Cc4ccsc4)C(=O)N[C@@H](Cc4csc5ccccc45)C(=O)N[C@@H](CCC(N)=O)C(N)=O)(C3)NC(=O)[C@H](CC(C)C)NC(=O)[C@H](Cc3ccccc3)NC(=O)C(C)(C)NC(=O)C(C)(C)NC(=O)[C@H](CC(=O)O)NC(=O)[C@H](CC(=O)O)NC1=O)NC(=O)[C@H](CC(C)(C)C)NC(=O)[C@H](CC(=O)O)NC2=O (some centres unmarked) [I-1179] | 44
CC(=O)N1CCC[C@]12CC=CCCCC1(CCCC=CCCCOC(=O)N3CC[C@@](C(=O)N[C@@H](Cc4ccsc4)C(=O)N[C@@H](Cc4csc5ccccc45)C(=O)N[C@@H](CO)C(N)=O)(C3)NC(=O)[C@H](CO)NC(=O)[C@H](Cc3ccccc3)NC(=O)[C@H](C)NC(=O)[C@H](C)NC(=O)[C@H](CN(CC(=O)O)CC(F)(F)F)NC(=O)[C@H](CC(=O)O)NC1=O)NC(=O)[C@H](CC(C)(C)C)NC(=O)[C@H](CC(=O)O)NC2=O (some centres unmarked) [I-955] | 45
CC[C@H](C)[C@@H]1NC(=O)[C@H](CC(=O)O)NC(=O)[C@]2(CC=CCCCC3(CCCC=CCCCCCC[C@@](C)(C(=O)N[C@@H](Cc4ccccc4)C(=O)N[C@@H](Cc4csc5ccccc45)C(=O)N[C@@H](Cc4c[nH]cn4)C(N)=O)NC(=O)[C@H](CCC(N)=O)NC(=O)[C@H](Cc4ccccc4)NC(=O)[C@H](C)NC(=O)[C@H](C)NC(=O)[C@H](CC(=O)O)NC(=O)[C@H](CC(=O)O)NC3=O)NC1=O)CCCN2C(C)=O (some centres unmarked) [I-580] | 24

Next molecule, please.
[ask] State the recorded Solubility for this entry: CC(=O)N1CCC[C@]12CC=CCCCC1(CCCC=CCCCCCC[C@@](C)(C(=O)N[C@@H](Cc3ccccc3)C(=O)N[C@@H](Cc3csc4ccccc34)C(=O)N[C@@H](CCC(N)=O)C(N)=O)NC(=O)[C@H](CC(N)=O)NC(=O)[C@H](Cc3ccccc3)NC(=O)[C@H](C)NC(=O)[C@H](C)NC(=O)[C@H](CCC(=O)O)NC(=O)[C@H](CC(=O)O)NC1=O)NC(=O)[C@H](C)NC(=O)[C@H](CC(=O)O)NC2=O (some centres unmarked) [I-424]
[reply] 50

====

Below is a list of entries, each paired with its recorded pIC50 value.
Molecular target: full-length beta-Catenin (Uniprot ID P35222) (Homo sapiens, UniProt P35222)
Construct: 10 nM full-length beta-Catenin (Uniprot ID P35222)
Sequence (P35222 whole entry): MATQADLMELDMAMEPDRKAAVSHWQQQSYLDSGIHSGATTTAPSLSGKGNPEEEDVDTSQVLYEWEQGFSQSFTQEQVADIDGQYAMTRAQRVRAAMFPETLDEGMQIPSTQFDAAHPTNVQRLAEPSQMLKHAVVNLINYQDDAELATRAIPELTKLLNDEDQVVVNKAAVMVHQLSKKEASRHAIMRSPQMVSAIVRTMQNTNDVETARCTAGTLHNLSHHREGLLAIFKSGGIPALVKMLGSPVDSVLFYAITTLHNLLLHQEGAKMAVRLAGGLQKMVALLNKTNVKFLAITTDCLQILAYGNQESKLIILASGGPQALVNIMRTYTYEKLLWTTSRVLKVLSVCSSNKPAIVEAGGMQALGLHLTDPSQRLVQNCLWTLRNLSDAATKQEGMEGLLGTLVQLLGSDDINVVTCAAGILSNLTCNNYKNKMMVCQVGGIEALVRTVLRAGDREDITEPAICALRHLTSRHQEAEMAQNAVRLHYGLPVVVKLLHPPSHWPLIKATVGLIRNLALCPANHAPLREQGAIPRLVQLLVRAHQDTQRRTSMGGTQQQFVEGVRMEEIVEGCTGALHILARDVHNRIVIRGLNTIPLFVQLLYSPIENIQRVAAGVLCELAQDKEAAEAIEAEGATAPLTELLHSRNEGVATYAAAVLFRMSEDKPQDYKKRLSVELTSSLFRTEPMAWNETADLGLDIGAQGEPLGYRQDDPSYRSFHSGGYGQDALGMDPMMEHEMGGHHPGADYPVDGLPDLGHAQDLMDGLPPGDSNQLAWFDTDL
Experiment: Fluorescence polarization IC50 (beta-catenin / 5FAM-TCF4 10-53 competition)
Format: binding
Details: fluorescence polarization; read-out: beta-Catenin FP IC50
# log scale: pIC50 equals minus log10 of the concentration in mol/L

CC(=O)NCCCC[C@@H]1NC(=O)[C@H](Cc2ccccc2)NC(=O)[C@H](C)NC(=O)[C@H](C)NC(=O)[C@H](Cc2cccc(C(=O)O)c2)NC(=O)[C@H](CC(=O)O)NC(=O)C2(CCCC=CCCCOC(=O)N3CC[C@@](C(=O)N[C@@H](Cc4ccccc4C(F)(F)F)C(=O)N[C@@H](Cc4csc5ccccc45)C(=O)N[C@@H](CCC(=O)N(C)C)C(N)=O)(C3)NC1=O)CCCC=CC[C@]1(CCCN1C(C)=O)C(=O)N[C@@H](CC(=O)O)C(=O)N[C@@H](CC(C)(C)C)C(=O)N2 (some centres unmarked) [I-2540] | 7.85

Then this compound:
[ask] # query: pIC50 of entry CC(=O)N1CCC[C@]12CC=CCCCC1(CCCC=CCCCOC(=O)N3CC[C@@](C(=O)N[C@@H](Cc4ccsc4)C(=O)N[C@@H](Cc4csc5ccccc45)C(=O)N[C@@H](C)C(N)=O)(C3)NC(=O)[C@H](CC(C)C)NC(=O)[C@H](Cc3ccccc3)NC(=O)[C@H](C)NC(=O)[C@H](CCCCN)NC(=O)[C@H](Cc3cccc(C(=O)O)c3)NC(=O)[C@H](CC(=O)O)NC1=O)NC(=O)[C@H](CC(C)(C)C)NC(=O)[C@H](CC(=O)O)NC2=O (some centres unmarked)
[reply] 7.89
